assay: Cytotoxicity against mock-infected human MT4 cells assessed as reduction in cell viability after 5 days by MTT assay; format: cell-based
In this section we review reported CC50 at 120 h values for a set of compounds.
The figure you give is taken to be in µM; do not add the unit.

INSERT INTO assay_data (smiles_repr, reported_metric, reported_result) VALUES
  ('N#Cc1cc(Cl)cc(Oc2c(C(F)(F)F)ccn(CC(=O)Nc3ccncc3)c2=O)c1', 'CC50 at 120 h', 133);

Look up CC50 at 120 h: CS(=O)(=O)c1ccc(NC(=O)Cn2ccc(C(F)(F)F)c(Oc3cc(Cl)cc(C#N)c3)c2=O)cc1 112
